Test system: HL-1
experiment: relative cell viability (CellTiter-Glo) vs DMSO control (% of DMSO control); higher = more viable cells
condition: oxygen condition: hypoxia 48 h (1% O2) + reoxygenation 24 h; 200 nM
Structures can show the parent of a compound that is named as a salt.
# key: entry, value: relative cell viability
A bare number is all that is needed in reply.

Answered cases to consult:
{"columns": ["compound", "numeric_value"],
 "data": [
  ["Nc1nc(Cl)nc2c1ncn2[C@H]1C[C@H](O)[C@@H](CO)O1", 30.7],
  ["CCCS(=O)(=O)Nc1ccc(F)c(C(=O)c2c[nH]c3ncc(-c4ccc(Cl)cc4)cc23)c1F", 111]
]}

Could you tell me which relative cell viability is on file for CC(=O)/N=c1/sc(S(N)(=O)=O)nn1C [Methazolamide] ? 109

Suppose we examine the compound CN(C)CCOC(C)(c1ccccc1)c1ccccn1 (stereo not drawn) [Doxylamine Succinate] ; what relative cell viability value has been reported? 104

Requested field: relative cell viability. Item: Cc1ncc(C[n+]2csc(CCO)c2C)c(N)n1 [Thiamine HCl] 107

Requested field: relative cell viability. Item: `CN1CC(=O)N2[C@H](c3ccc4c(c3)OCO4)c3[nH]c4ccccc4c3C[C@@H]2C1=O` 105

What does the data say about its relative cell viability? Entry: `Nc1ccn([C@@H]2O[C@H](CO)[C@@H](O)[C@@H]2O)c(=O)n1` 75.5

May I ask what relative cell viability has been recorded for `O=C(CCCN1CC=C(n2c(=O)[nH]c3ccccc32)CC1)c1ccc(F)cc1` ? 102

May I ask what relative cell viability has been recorded for COc1cc([C@@H]2c3cc4c(cc3[C@@H](O[C@@H]3O[C@@H]5CO[C@@H](C)O[C@H]5[C@H](O)[C@H]3O)[C@H]3COC(=O)[C@H]23)OCO4)cc(OC)c1O [Etoposide] ? 67.1

Entry `NC[C@H]1CC[C@H](C(=O)O)CC1` has what relative cell viability? 102

So what does the record say about relative cell viability for `CCCCCOC(=O)Nc1nc(=O)n([C@@H]2O[C@H](C)[C@@H](O)[C@H]2O)cc1F` ? 94.1

----------
Quick reference for relative cell viability among some compounds
Tested on: HL-1
experiment: relative cell viability (CellTiter-Glo) vs DMSO control (% of DMSO control); higher = more viable cells
condition: oxygen condition: normoxia 72 h; 40 nM
Structures can show the parent of a compound that is named as a salt.
Quick one: just the number, no unit, thanks!

{"columns": ["compound", "numeric_value"],
 "data": [
  ["CN1CCCCC1CCN1c2ccccc2Sc2ccc([S+](C)[O-])cc21 (centres undefined) [Mesoridazine Besylate]", 97],
  ["CCN(CC)C(=O)C1(c2ccccc2)CC1CN (centres undefined) [Milnacipran HCl]", 107],
  ["Nc1ccn([C@@H]2O[C@H](CO)[C@@H](O)C2(F)F)c(=O)n1 [Gemcitabine]", 3.56],
  ["CCOC(=O)[C@H](CCc1ccccc1)N[C@@H](C)C(=O)N1C(=O)N(C)C[C@H]1C(=O)O [Imidapril]", 110]
]}

Quick check: relative cell viability on HL-1, item COc1ccc2cc1Oc1ccc(cc1)C[C@H]1c3c(cc4c(c3Oc3cc5c(cc3OC)CCN(C)[C@@H]5C2)OCO4)CCN1C [Cepharanthine] ? 99.4

Look up relative cell viability with HL-1 for this compound: `C#Cc1cccc(Nc2ncnc3cc(OCCOC)c(OCCO)cc23)c1` 111

Lab request: please report relative cell viability under test system HL-1 for Cc1cccc(N(C)C(=S)Oc2ccc3ccccc3c2)c1 [Tolnaftate] 102

Find relative cell viability (HL-1) for the entry Cc1nccn1CC1CCc2c(c3ccccc3n2C)C1=O (centres undefined) [Ondansetron] 102

Notebook: pull reported relative cell viability for HL-1, entry O=C(O)c1cc(=O)c2ccccc2o1 [Chromocarb] 111

----------
System: HL-1
experiment: relative cell viability (CellTiter-Glo) vs DMSO control (% of DMSO control); higher = more viable cells
condition: oxygen condition: hypoxia 48 h (1% O2) + reoxygenation 24 h; 40 nM
Where a name gives a salt, the structure may show the parent alone.
endpoint_name: relative cell viability
Just the number, please, no unit attached.

// solved cases for relative cell viability follow
{"columns": ["compound", "numeric_value"],
 "data": [
  ["Cc1nc2n(c(=O)c1CCN1CCC(c3noc4cc(F)ccc34)CC1)CCCC2 [Risperidone]", 104],
  ["Nc1nc2[nH]cc(CCc3ccc(C(=O)N[C@@H](CCC(=O)O)C(=O)O)cc3)c2c(=O)[nH]1 [Pemetrexed]", 116],
  ["CN(C)CCCN1c2ccccc2Sc2ccc(C(F)(F)F)cc21 [Triflupromazine HCl]", 98.8],
  ["CN1CCN(CCCN2c3ccccc3Sc3ccc(C(F)(F)F)cc32)CC1 [Trifluoperazine 2HCl]", 102],
  ["CC#CCn1c(N2CCC[C@@H](N)C2)nc2c1c(=O)n(Cc1nc(C)c3ccccc3n1)c(=O)n2C [Linagliptin]", 96.7],
  ["C[N+](C)(C)CC(O)CC(=O)[O-] (racemic) [DL-Carnitine hydrochloride]", 100]
]}

From here, focus on the item given below.
Field: relative cell viability (HL-1). Entry: CCN(CC)CCOC(=O)C(c1ccccc1)c1ccccc1 [Adiphenine HCl] 99.1

----------
System: HL-1
experiment: relative cell viability (CellTiter-Glo) vs DMSO control (% of DMSO control); higher = more viable cells
condition: oxygen condition: normoxia 72 h; 5000 nM
Counter-ions that a name gives are not always drawn.
endpoint_name: relative cell viability
Lab note: jot the number down without any unit.

# annotated cases, reported relative cell viability shown
{"columns": ["molecule", "endpoint_name", "numeric_value"],
 "data": [
  ["O=C1NC(=O)C(c2ccccc2)(c2ccccc2)N1 [Phenytoin]", "relative cell viability", 99.4],
  ["Nc1ccc(C(=O)O)c(O)c1 [Aminosalicylate sodium]", "relative cell viability", 108],
  ["O=C(O)Cc1cc(I)c(Oc2ccc(O)c(I)c2)c(I)c1 [Tiratricol]", "relative cell viability", 126],
  ["CCCCc1ncc(/C=C(\\Cc2cccs2)C(=O)O)n1Cc1ccc(C(=O)O)cc1 [Eprosartan Mesylate]", "relative cell viability", 105],
  ["Cc1ccc(C(=O)C(C)CN2CCCCC2)cc1 (stereo not given) [Tolperisone HCl]", "relative cell viability", 111]
]}

Turning to the following molecule.
Any idea what its relative cell viability is? The molecule is COc1ccccc1OCCNCC(O)COc1cccc2[nH]c3ccccc3c12 (stereo not given) [Carvedilol] 107

----------
System: HL-1
experiment: relative cell viability (CellTiter-Glo) vs DMSO control (% of DMSO control); higher = more viable cells
condition: oxygen condition: hypoxia 48 h (1% O2) + reoxygenation 24 h; 200 nM
Structures can show the parent of a compound that is named as a salt.
# relative cell viability values compiled below
The answer should be written as a number, with no unit following it.

{"columns": ["compound", "relative cell viability"],
 "data": [
  ["COc1cccc2c1C(=O)c1c(O)c3c(c(O)c1C2=O)C[C@@](O)(C(=O)CO)C[C@@H]3O[C@H]1C[C@H](N)[C@H](O)[C@H](C)O1", 44],
  ["C=C1CC[C@H](O)C/C1=C/C=C1\\CCC[C@]2(C)[C@@H]([C@H](C)/C=C/[C@H](C)C(C)C)CC[C@@H]12 [Vitamin D2]", 99.8],
  ["O=C(O)C[C@H](O)C[C@H](O)/C=C/c1c(C2CC2)nc2ccccc2c1-c1ccc(F)cc1", 109],
  ["O=NO [Sodium nitrite]", 110],
  ["C[C@@H]1CC(=O)NN=C1c1ccc(NN=C(C#N)C#N)cc1", 103]
]}

# input compound: COC(=O)C1=C(C)NC(C)=C(C(=O)OCC(C)C)C1c1ccccc1[N+](=O)[O-] (stereo not drawn) ; wanted: its relative cell viability 104

So what does the record say about relative cell viability for `CCN1CCN(c2cc(-c3ccc(F)cc3)c3c(n2)CCCCCC3)CC1` ? 99.5

I would be grateful if you could share the reported relative cell viability for CC1=C(CC(=O)O)c2cc(F)ccc2/C1=C\c1ccc([S+](C)[O-])cc1 (stereo not drawn) . 105

// lookup relative cell viability for CCN(CC)CCNC(=O)c1c(C)[nH]c(/C=C2\C(=O)Nc3ccc(F)cc32)c1C [Sunitinib Malate] 109

State the recorded relative cell viability for this entry: CCCCc1oc2ccccc2c1C(=O)c1cc(I)c(OCCN(CC)CC)c(I)c1 [Amiodarone HCl] 95.4

----------
System: HL-1
experiment: relative cell viability (CellTiter-Glo) vs DMSO control (% of DMSO control); higher = more viable cells
condition: oxygen condition: hypoxia 48 h (1% O2) + reoxygenation 24 h; 200 nM
Structures can show the parent of a compound that is named as a salt.
endpoint_name: relative cell viability
Just the number, please, no unit attached.

{"columns": ["molecule", "endpoint_name", "numeric_value"],
 "data": [
  ["O=P(O)(O)C(O)(Cn1ccnc1)P(=O)(O)O [Zoledronic Acid]", "relative cell viability", 100]
]}

Return reported relative cell viability; argument: CCCC(=O)O[C@]1(C(=O)COC(C)=O)CC[C@H]2[C@@H]3C[C@H](F)C4=CC(=O)C=C[C@]4(C)[C@@]3(F)[C@@H](O)C[C@@]21C [Difluprednate] 93.3

Fill in: relative cell viability of CC[C@H](C)C(=O)O[C@H]1C[C@H](O)C=C2C=C[C@H](C)[C@H](CC[C@@H](O)C[C@@H](O)CC(=O)O)[C@H]21 [Pravastatin sodium] is ___ 94.4

// lookup relative cell viability for NCCCCCC(=O)O [Aminocaproic acid] 102

# get_value(readout='relative cell viability', item= C[C@H](N[C@@H](CCc1ccccc1)C(=O)O)C(=O)N1CCC[C@H]1C(=O)O [Enalaprilat dihydrate] ) 106

# query: relative cell viability of entry CCCc1ncc(C[n+]2ccccc2C)c(N)n1 [Amprolium HCl] 104

For CCOC(=O)[C@H](CCc1ccccc1)N[C@@H](C)C(=O)N1Cc2cc(OC)c(OC)cc2C[C@H]1C(=O)O [Moexipril HCl] , what is its reported relative cell viability? 102

What measured relative cell viability goes with Cc1c(O)c(=O)ccn1C [Deferiprone] ? 102

Which measured relative cell viability value corresponds to COCCOC(=O)C1=C(C)NC(C)=C(C(=O)OC/C=C/c2ccccc2)C1c1cccc([N+](=O)[O-])c1 (stereo not drawn) [Cilnidipine] ? 105

What measured relative cell viability goes with O=C(O[C@H]1CN2CCC1CC2)N1CCc2ccccc2[C@@H]1c1ccccc1 [Solifenacin succinate] ? 111
